molecular target: Cytochrome P450 3A4 (Homo sapiens) (UniProt P08684); assay: Cytochrome panel assay with activity outcomes; settings: recombinant CYP, pro-luciferin dealkylation, luminescence, p450-cyp3a4; series mostly up to 57.1 µM
Sequence (P08684 whole entry, looked up): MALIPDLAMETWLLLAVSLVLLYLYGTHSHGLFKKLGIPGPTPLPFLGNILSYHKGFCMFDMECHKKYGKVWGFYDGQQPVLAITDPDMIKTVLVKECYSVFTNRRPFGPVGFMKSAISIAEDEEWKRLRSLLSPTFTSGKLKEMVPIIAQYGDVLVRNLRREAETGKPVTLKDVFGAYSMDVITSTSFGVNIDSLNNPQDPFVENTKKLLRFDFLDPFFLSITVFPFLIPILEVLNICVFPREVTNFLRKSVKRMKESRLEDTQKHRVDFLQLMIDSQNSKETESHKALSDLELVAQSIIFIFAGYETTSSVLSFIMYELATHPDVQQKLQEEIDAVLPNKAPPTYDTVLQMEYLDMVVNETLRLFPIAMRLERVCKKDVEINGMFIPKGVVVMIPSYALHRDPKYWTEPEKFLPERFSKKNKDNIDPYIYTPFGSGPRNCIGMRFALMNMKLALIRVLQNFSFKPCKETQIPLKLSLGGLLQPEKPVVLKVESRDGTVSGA
Hit rate of the full screen: of about 16,000 compounds, about 5,100 (32%) were called active. About 25% were inconclusive and are not listed. Calls come from the whole dose curve; as a rule, active = well fitted curve in the direction sought with a large enough effect; inconclusive = small, poorly fitted or top-dose-only effect, or effect the other way; inactive = no such curve, though single readings can be large or run the other way. The list shows a part of the results.
Mark one answer only. Choices: True = active, False = inactive

Use these answered entries as a reference point.
CC(C)NC(=O)N1CC2(CCN(C(=O)c3ccco3)CC2)C1	False
CCOC(=O)C1=C(c2ccccc2)N=c2s/c(=C\c3cccc(O)c3)c(=O)n2C1c1cccs1 (stereo not given)	True
CCN(CC)CCNC(=O)c1ccc(Cl)c(S(=O)(=O)Nc2ccccc2OC)c1	True
N#C/C(=C\c1c[nH]c2ccccc12)C(=O)c1ccc(O)c(O)c1	True
O=C(COc1ccc2ccccc2c1)Nc1ccc(Cc2ccncc2)cc1	True

Check the results log: what was the call for `COc1ccc2cc3cc(C(=O)NCc4ccc5c(c4)OCO5)oc3nc2c1` ?
True

State the result this test recorded for O=C(Nc1ccc(Cl)c(C(F)(F)F)c1)C1CCCN(S(=O)(=O)c2cnc[nH]2)C1 (stereo not given) .
True

Hi team, can someone confirm the assay call for CCOc1c2ccc(C(=O)NC3CCCc4ccccc43)cc2nn1C (stereo not given) ?
False

// return assay outcome for `C=CCn1c(=O)c2c(nc(Br)n2Cc2ccccc2Cl)n(C)c1=O`
True

Hello, I am checking results. What call was entered for `CNc1cc(CSC)nc(SCc2ccc(Cl)c(Cl)c2)n1` ?
True

What call does the record list for `O=C(CN1C(=O)NC2(CCCC2)C1=O)NCCC1=CCCCC1` ?
False
